test system: MDA-MB-435; experiment: NCI tumour cell line growth inhibition, 48 h
assayMetric: TGI

Ask | Item C=C1C(=O)OC2/C=C(\C)C(O)CC(O)C(C)(O)CC(OC(=O)/C(C)=C/C)C12 (stereo not drawn) with MDA-MB-435 - TGI?
Reply | > 100 µM

Ask | Item FC(F)(F)c1ccc2c(c1)nc(Cc1ccccc1)n2C[C@@H]1CCCN2CCCCC12 (stereo partly drawn) with MDA-MB-435 - TGI?
Reply | 30.4 µM

Ask | Item O=C1Oc2ccccc2C(=O)/C1=C/N1C(=O)/C(=C/c2ccc([N+](=O)[O-])cc2)SC1=S with MDA-MB-435 - TGI?
Reply | 50.6 µM

Ask | Item O=C(CCCCCCCCC(=O)NN1C(=O)/C(=C\c2ccc(O)c(O)c2)SC1c1c(O)ccc2ccccc12)NN1C(=O)C(=Cc2ccc(O)c(O)c2)SC1c1c(O)ccc2ccccc12 (stereo not drawn) with MDA-MB-435 - TGI?
Reply | > 100 µM

Ask | Item COC1=CC(=O)C(O)=C(C[C@@]2(C)[C@@H]3CCC[C@H](COC(=O)CCCCCNC(=O)OC(C)(C)C)[C@@]3(C)CC[C@@H]2C)C1=O with MDA-MB-435 - TGI?
Reply | > 10 µM

Ask | Item OC(c1cccs1)c1cc2ccccc2s1 (stereo not drawn) with MDA-MB-435 - TGI?
Reply | > 10 µM

Ask | Item Cc1ccc(N=C2CSc3nnc(-c4csc5c4CCCC5)n3N2)cc1 with MDA-MB-435 - TGI?
Reply | 0.237 µM

Ask | Item CC1=C/C(=N/N2C(=O)/C(=C/c3ccc(Cl)cc3)N=C2c2ccccc2)CC(C)(C)C1 with MDA-MB-435 - TGI?
Reply | > 100 µM
